Origin of values: patent US20070105961A1

- system name: 5-HT3 receptors (Mus musculus, UniProt P23979)
- Construct: against “steady-state” responses of N1E-115 cells to serotonin (10 μM)
- Sequence (P23979 24-489): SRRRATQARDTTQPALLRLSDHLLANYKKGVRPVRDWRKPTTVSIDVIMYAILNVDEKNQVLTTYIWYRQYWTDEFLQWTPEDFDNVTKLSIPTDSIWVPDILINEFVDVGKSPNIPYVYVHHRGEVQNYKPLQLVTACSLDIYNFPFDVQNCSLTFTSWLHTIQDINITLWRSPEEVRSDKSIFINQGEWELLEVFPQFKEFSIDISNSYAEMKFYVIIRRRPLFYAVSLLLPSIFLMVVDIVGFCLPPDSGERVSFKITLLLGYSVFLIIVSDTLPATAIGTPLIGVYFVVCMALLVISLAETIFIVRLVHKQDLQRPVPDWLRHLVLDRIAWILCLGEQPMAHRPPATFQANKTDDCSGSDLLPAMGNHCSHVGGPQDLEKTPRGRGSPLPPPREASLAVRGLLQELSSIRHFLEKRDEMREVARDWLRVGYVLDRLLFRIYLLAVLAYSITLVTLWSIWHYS
- assay remarks: patch clamp, antagonism of serotonin-induced inward currents in N1E-115 cells
- measurement setup: serotonin (10 μM) applied for 2 secs, read-out: 5HT3 IC50 against steady-state responses
Property: log10(IC50); scope: individual molecules
Friendly reminder: values = log10 of IC50, unit µM.

Given the molecule CC1(C)CCCC(C)(N)C1 (stereo not shown) , write its reported log10(IC50).
1.31

For the molecule CNC1(C)CC(C)(C)CC(C)(C)C1 , report log10(IC50).
1.03

Specify reported log10(IC50) for the molecule shown: CC1CC(C)CC(C)(N)C1 (mixture of isomers)
1.59

Query log10(IC50) for CC[C@@H]1CC(C)(C)C[C@](C)(N)C1 (relative stereo)
0.38

---
# return recorded log10(IC50) for entry CC1(C)CC(C)(C)CC(C)(N)C1
0.23

For the molecule CCCC1(N)CC(C)(C)CC(C)(C)C1 , give its reported log10(IC50).
0.11

Provide one value: measured log10(IC50) of CC[C@@H]1CC(C)(C)C[C@@](C)(N)C1 (relative stereo)
0.89

Read off the recorded log10(IC50) for CN(C)C1(C)CC(C)(C)CC(C)(C)C1
1.55

Report log10(IC50), nothing else, for this molecule: CCC1(C)CC(C)(C)CC(C)(N)C1 (mixture of isomers)
0.40

For the molecule C[C@@H]1CC(C)(C)C[C@@](C)(N)C1 (relative stereo) , give its measured log10(IC50) value.
1.35

###

Catalogue of IC50 values
- system name: α7 neuronal nicotinic receptors (Rattus norvegicus, UniProt Q05941)
- Construct: against peak responses of cultured hippocampal neurones to Ach (1 mM) applied for 2 secs; endogenous in cells; host or cells: cultured rat embryonic hippocampal neurones
- Sequence (Q05941 23-502): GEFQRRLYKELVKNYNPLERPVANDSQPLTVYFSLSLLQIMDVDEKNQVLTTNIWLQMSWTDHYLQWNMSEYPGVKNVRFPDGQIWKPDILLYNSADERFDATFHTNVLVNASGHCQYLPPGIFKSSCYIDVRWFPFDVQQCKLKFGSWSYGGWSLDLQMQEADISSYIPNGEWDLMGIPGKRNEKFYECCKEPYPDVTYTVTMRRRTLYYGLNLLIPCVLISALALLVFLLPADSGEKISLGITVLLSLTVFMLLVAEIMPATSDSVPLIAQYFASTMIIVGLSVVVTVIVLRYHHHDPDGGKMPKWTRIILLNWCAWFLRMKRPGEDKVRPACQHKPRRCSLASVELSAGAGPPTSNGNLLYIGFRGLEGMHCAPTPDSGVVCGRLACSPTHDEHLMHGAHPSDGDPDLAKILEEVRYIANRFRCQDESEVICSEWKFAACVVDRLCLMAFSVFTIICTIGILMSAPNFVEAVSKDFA
- assay remarks: patch clamp, antagonism of Ach-induced inward currents in cultured hippocampal neurones
- Type: cell-based
- measurement setup: cultured hippocampal neurones, Ach (1 mM) applied for 2 secs; read-out: PC Ach IC50 against peak responses
Respond numerically; units are nM and should not be typed.

Lab note: α7 neuronal nicotinic receptors (Rattus norvegicus, UniProt Q05941) assay, enter IC50 for CC[C@H]1CCC[C@](C)(N)C1 (relative stereo) here
2050

GET IC50 where system = α7 neuronal nicotinic receptors (Rattus norvegicus, UniProt Q05941) and item = CC1(N)CCCCC1
2400

Write IC50 of C[C@H]1CCC[C@](C)(N)C1 (relative stereo) [MRZ 2/625, 1-Amino-1,3(trans)-dimethylcyclohexane] ; system used: α7 neuronal nicotinic receptors (Rattus norvegicus, UniProt Q05941)
3290

Enter recorded IC50 with α7 neuronal nicotinic receptors (Rattus norvegicus, UniProt Q05941) for CC1CC(C)CC(C)(N)C1 (mixture of isomers) here.
3400

State recorded IC50 with α7 neuronal nicotinic receptors (Rattus norvegicus, UniProt Q05941), entry CCC[C@H]1CCC[C@](C)(N)C1 (relative stereo) , no comment.
2600

More entries:
Supply IC50 measured with α7 neuronal nicotinic receptors (Rattus norvegicus, UniProt Q05941) for CC1(C)CC(C)(C)CC(C)(N)C1 .
30000

Quote IC50 with test system α7 neuronal nicotinic receptors (Rattus norvegicus, UniProt Q05941) for CCC1(C)CC(C)(C)CC(C)(N)C1 (mixture of isomers)
2210

Write IC50 of CC1(C)CC(C)(C)CC(C)(N2CCCC2)C1 ; system used: α7 neuronal nicotinic receptors (Rattus norvegicus, UniProt Q05941)
1300

Give reported IC50 for CCC1(C)CCCC(C)(N)C1 (centres unmarked) (α7 neuronal nicotinic receptors (Rattus norvegicus, UniProt Q05941))
2440

State recorded IC50 with α7 neuronal nicotinic receptors (Rattus norvegicus, UniProt Q05941), entry CCCC1(C)CC(C)CC(C)(N)C1 (centres unmarked) , no comment.
650

Please look at CCCC1(C)CCCC(C)(N)C1 (mixture of isomers) and tell me its recorded IC50 on α7 neuronal nicotinic receptors (Rattus norvegicus, UniProt Q05941).
1160
